The following compounds are listed with their measured AUC(0-inf) values.
run description: Pharmacokinetic study of 14 compounds in rat plasma after oral administration of XYP (UPLC-MS/MS)
Type: in vivo, Sprague–Dawley rats
conditions: female, Sprague-Dawley, oral XYP 4 g/kg, mean ± SD, n = 6
Write the answer as a number in ng·h/mL, unit excluded.

CCC/C=C1\OC(=O)C2=C1CCC=C2 [Ligustilide, ligustilide]    207

Q: Consider the compound C=C1CCC[C@]2(C)C[C@]3(O)OC(=O)C(C)=C3C[C@@H]12 [Atractylenolide III, atractylenolide III] . State its measured AUC(0-inf).
Ans: 1130

Q: Read the entry O=c1c(O)c(-c2ccc(O)c(O)c2)oc2cc(O)cc(O)c12 [Quercetin, quercetin] and write its reported AUC(0-inf).
Ans: 782

Q: Report AUC(0-inf) for C[C@@]12C[C@@]3(O)O[C@@H](O1)[C@]1(COC(=O)c4ccccc4)[C@H]3C[C@@]12O[C@@H]1O[C@H](CO)[C@@H](O)[C@H](O)[C@H]1O [Paeoniflorin, paeoniflorin]
Ans: 718

====

run description: Pharmacokinetic study of 14 compounds in rat plasma after oral administration of XYP (UPLC-MS/MS)
Type: in vivo, Sprague–Dawley rats
conditions: female, Sprague-Dawley, oral XYP 4 g/kg, mean ± SD, n = 6, read-out: MRT0–t
Entries and their MRT last values follow.
Give the value, in units of h, as a plain number.

Q: Name the recorded MRT last of the compound listed here: O=C1C[C@@H](c2ccc(O[C@@H]3O[C@H](CO)[C@@H](O)[C@H](O)[C@H]3O)cc2)Oc2cc(O)ccc21
Ans: 5.7

Q: Note down MRT last recorded for C[C@@]12C[C@@]3(O)O[C@@H](O1)[C@]1(COC(=O)c4ccccc4)[C@H]3C[C@@]12O[C@@H]1O[C@H](CO)[C@@H](O)[C@H](O)[C@H]1O
Ans: 4.17

Q: Report measured MRT last; entry is C=C1CCC[C@]2(C)C[C@@H]3OC(=O)C(C)=C3C[C@@H]12 [Atractylenolide II, atractylenolide II]
Ans: 4.15

====

run description: Pharmacokinetic study of 14 compounds in rat plasma after oral administration of XYP (UPLC-MS/MS)
Format: in vivo, Sprague–Dawley rats
conditions: female, Sprague-Dawley, oral XYP 4 g/kg, mean ± SD, n = 6
# AUC(0-t) >= 200 ng·h/mL gives MET, anything below gives NOT MET

C[C@@H]1O[C@@H](O[C@H]2[C@H](O)[C@@H](O)[C@H](O[C@H]3CC[C@]4(C)[C@H]5C=C[C@]67OC[C@@]8(CCC(C)(C)C[C@H]86)[C@@H](O)C[C@@]7(C)[C@]5(C)CC[C@H]4C3(C)C)O[C@@H]2CO[C@@H]2O[C@H](CO)[C@@H](O)[C@H](O)[C@H]2O)[C@H](O)[C@H](O)[C@H]1O    NOT MET
COc1cc(/C=C/C(=O)O)ccc1O    MET
C[C@H]1O[C@@H](O[C@H]2CC[C@@]3(C)[C@@H](CC[C@]4(C)[C@@H]3C=C[C@]35OC[C@@]6(CCC(C)(C)C[C@H]63)[C@@H](O)C[C@]54C)[C@]2(C)CO)[C@H](O)[C@@H](O[C@@H]2O[C@H](CO)[C@@H](O)[C@H](O)[C@H]2O)[C@H]1O    NOT MET
CC1(C)[C@@H](O[C@H]2O[C@H](C(=O)O)[C@@H](O)[C@H](O)[C@H]2O[C@@H]2O[C@H](C(=O)O)[C@@H](O)[C@H](O)[C@H]2O)CC[C@]2(C)[C@H]3C(=O)C=C4[C@@H]5C[C@@](C)(C(=O)O)CC[C@]5(C)CC[C@@]4(C)[C@]3(C)CC[C@@H]12    NOT MET

Q: Determine whether measured AUC(0-t) meets or exceeds 200 ng·h/mL for O=c1c(O)c(-c2ccc(O)c(O)c2)oc2cc(O)cc(O)c12
Ans: MET
